Values compiled from paper PMC10650850.

target: AF9-DOT1L interaction (Homo sapiens); construct: human AF9 AHD domain (475–568); made in house; host or cells: E. coli BL21(DE3); assay: AlphaLisa assay, AF9-DOT1L interaction; type: binding; settings: compound at 5 μM, read-out: % Inhibition at 5 μM against the AF9-DOT1L interaction
Sequence (P42568 475-568): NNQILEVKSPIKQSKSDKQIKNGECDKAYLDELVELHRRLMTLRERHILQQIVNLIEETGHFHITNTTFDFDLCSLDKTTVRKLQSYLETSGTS
Measured property: inhibition at 5 µM

> print(dat)
                                   compound                    measurement.target   measured.property  result
1  N#CCc1ccc(-c2ccc3cc(C(=O)NCC4CCNCC4)sc3c2)cc1 [Compound 41]  AF9-DOT1L interaction (Homo sapiens)  inhibition at 5 µM    ~50%

Look up inhibition at 5 µM for the entries below, preserving their order.
1. O=C(NCC1CCNCC1)c1cc2cc(Nc3ccc(OC(F)(F)F)cc3)ccc2s1 [Compound 56]
2. N#Cc1cccc(-c2ccc3cc(C(=O)NCC4CCNCC4)[nH]c3c2)c1 [Compound 10]
3. O=C(NCC1CCNCC1)c1cc2ccc(Nc3ccc(OC(F)(F)F)cc3)cc2o1 [Compound 75]
4. O=C(NCC1CCNCC1)c1cc2cc(-c3ccc(C(=O)N4CCCCC4)cc3)ccc2s1 [Compound 51]

Solution:
1: 24%; 2: 0%; 3: 23%; 4: 31%
